- measuredTarget: GAL4 DBD (1-147)-CfEcR(DEF)/VP16AD-βRXREF-LmUSPEF (Choristoneura fumiferana)
- protocolDetails: cell-based
- conditionLabel: maximum fold induction at any concentration relative to that of GS-E ligand; CHO 27-63 cells
recordedEndpoint: 27-63 assay Rel Max FI

In [3]: df
Out[3]:
                                   molecule                            measuredtarget        recordedendpoint  valueobserved
0  Cc1c(C(=O)NN(C(=O)c2ccc(F)cc2)C(C)(C)C)ccc2c1OCO2 [RG-100448]  GAL4 DBD (1-147)-CfEcR(DEF)/VP16AD-βRXREF-LmUSPEF (Choristoneura fumiferana)  27-63 assay Rel Max FI          0.609
1  CCc1c(C(=O)NN(C(=O)c2ccc(Cl)cc2F)C(C)(C)C)ccc2c1OCCO2 [RG-115514]  GAL4 DBD (1-147)-CfEcR(DEF)/VP16AD-βRXREF-LmUSPEF (Choristoneura fumiferana)  27-63 assay Rel Max FI          0.720
2  CCc1c(OC)cccc1C(=O)NN(C(=O)c1cc(C)cc(C)c1)C(CC)C(C)(C)C (stereo not shown) [RG-115832]  GAL4 DBD (1-147)-CfEcR(DEF)/VP16AD-βRXREF-LmUSPEF (Choristoneura fumiferana)  27-63 assay Rel Max FI          1.075
3  COc1ccccc1C(=O)N(NC(=O)c1ccc2c(c1)OCCO2)C(C)(C)C [RG-100492]  GAL4 DBD (1-147)-CfEcR(DEF)/VP16AD-βRXREF-LmUSPEF (Choristoneura fumiferana)  27-63 assay Rel Max FI          0.916

* * *

- measuredTarget: Bombyx mori EcR (VP16 fusion, CVBE switch construct) (Bombyx mori)
- Sequence (P49881 86-606): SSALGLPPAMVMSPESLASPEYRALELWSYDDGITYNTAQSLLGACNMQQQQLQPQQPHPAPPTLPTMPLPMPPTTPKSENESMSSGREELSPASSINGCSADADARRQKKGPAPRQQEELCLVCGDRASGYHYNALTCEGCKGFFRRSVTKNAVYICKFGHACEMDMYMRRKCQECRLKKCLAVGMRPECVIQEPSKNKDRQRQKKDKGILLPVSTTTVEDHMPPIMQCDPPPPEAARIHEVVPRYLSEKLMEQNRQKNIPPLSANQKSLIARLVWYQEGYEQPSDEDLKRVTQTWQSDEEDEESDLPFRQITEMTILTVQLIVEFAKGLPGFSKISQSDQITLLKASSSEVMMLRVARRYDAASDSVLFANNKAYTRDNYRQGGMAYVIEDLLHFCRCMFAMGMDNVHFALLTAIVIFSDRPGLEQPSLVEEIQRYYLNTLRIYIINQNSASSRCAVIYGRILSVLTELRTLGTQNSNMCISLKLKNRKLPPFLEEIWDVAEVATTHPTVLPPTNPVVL
- Sequence (P19793 whole entry partner, the tested form may be a part): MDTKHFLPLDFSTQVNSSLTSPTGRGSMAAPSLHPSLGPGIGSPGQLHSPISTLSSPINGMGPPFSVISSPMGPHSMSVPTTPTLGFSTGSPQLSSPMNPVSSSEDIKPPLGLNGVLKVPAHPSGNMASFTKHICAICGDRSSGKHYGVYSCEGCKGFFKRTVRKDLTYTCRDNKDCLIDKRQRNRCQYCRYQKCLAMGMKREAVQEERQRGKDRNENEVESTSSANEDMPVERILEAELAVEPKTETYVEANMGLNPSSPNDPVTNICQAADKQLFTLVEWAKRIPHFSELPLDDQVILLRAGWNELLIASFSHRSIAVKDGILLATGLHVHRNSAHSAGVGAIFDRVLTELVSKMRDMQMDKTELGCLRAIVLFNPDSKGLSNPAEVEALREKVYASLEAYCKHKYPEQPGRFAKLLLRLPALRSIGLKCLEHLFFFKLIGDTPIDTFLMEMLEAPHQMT
- protocolDetails: Z3 Assay (HEK-293 cells with CVBE and 6XEcRE LacZ, β-galactosidase reporter)
- conditionLabel: maximum fold induction at any concentration relative to that of GS-E ligand; HEK-293 Z3 cells
Catalogue of compounds with associated Z3 assay Rel Max FI
recordedEndpoint: Z3 assay Rel Max FI

>>> print(df.to_string())
                                   compound  valueobserved
0  C=Cc1c(OC)cccc1C(=O)NN(C(=O)c1cc(C)cc(C)c1)C(C)(C)C          0.920
1  CCc1c(OC)cccc1C(=O)NN(C(=O)c1cc(C)nc(Cl)c1)C(C)(C)C          0.890
2  CCC(N(NC(=O)c1cccc(OC)c1C)C(=O)c1cc(C)cc(C)c1)C(C)(C)C (stereo not shown)          0.915
3  Cc1cc(C)cc(C(=O)N(NC(=O)c2ccc3c(c2)OC(C)CO3)C(C)(C)C)c1 (racemic)          0.882
4  COc1cc(C(=O)N(NC(=O)c2cccc(OC(C)=O)c2C)C(C)(C)C)cc(OC)c1C          0.566
5  COCc1c(OC)cccc1C(=O)NN(C(=O)c1cc(Cl)cc(Cl)c1)C(C)(C)C          0.424
6  CCc1c(C(=O)NN(C(=O)c2cc(Cl)nc(Cl)c2)C(C)(C)C)ccc2c1OCCO2          0.872
7  Cc1c(O)cccc1C(=O)NN(C(=O)c1cc(Cl)nc(Cl)c1)C(C)(C)C          0.498
8  Cc1c(C(=O)NN(C(=O)c2ccccc2[S+](C)[O-])C(C)(C)C)ccc2c1OCCO2 (stereo not shown)          0.031
9  Cc1cc(C)cc(C(=O)N(NC(=O)c2ccc3c(c2Cl)COCO3)C(C)(C)C)c1          0.933
